- procedureSummary: Pro-oxidant activity assessed as bleomycin-Fe3+ complex-induced DNA damage at 1 mg/ml after 1 hr
- Assay type: ADME
In this section we review reported OD values for a set of compounds.
valueKind: OD

> print(dat)
                     compoundstructurestring  experimentalvalue
 1                 Nc1nnc(SCC(=O)Nc2nncs2)s1              0.101
 2                  Nc1n[nH]cc1C(=O)Nc1nncs1              0.102
 3                                  Nc1nncs1               0.09
 4     Clc1ccc(C/N=c2/scnn2Cc2ccc(Cl)cc2)cc1              0.121
 5          O=C(CN1CCN(c2ccccc2)CC1)Nc1nncs1              0.096
 6                     Clc1ccc(CNc2nncs2)cc1              0.108
 7                         N#CCC(=O)Nc1nncs1               0.08
 8  CC1=NN(c2ccccc2)C(=O)/C1=C/c1ccc(Nc2nncs2)cc1              0.105
 9                    c1nnc(/N=N/Nc2nncs2)s1              0.103
10  N#C/C(=C\c1ccc(N2CCCCC2)cc1)C(=O)Nc1nncs1              0.114
11                        N#CSCC(=O)Nc1nncs1              0.099
12                          O=C(CCl)Nc1nncs1              0.102
13              CN(C)/C=C(\C#N)C(=O)Nc1nncs1              0.127
14           O=C1O[C@H]([C@@H](O)CO)C(O)=C1O              0.098

====

- procedureSummary: Pro-oxidant activity assessed as bleomycin-Fe3+ complex-induced DNA damage at 1 mg/ml after 1 hr
- Type: ADME
valueKind: OD

> print(dat)
                    compoundstructurestring  valuekind  experimentalvalue
1  Cc1cc(C)c2c(NN/C=C(\C#N)C(=O)Nc3nncs3)n[nH]c2n1         OD              0.109
2                 O=C(Nc1nncs1)c1ccc(Cl)cc1         OD                0.1
3                     O=Cc1ccc(Nc2nncs2)cc1         OD                0.1

====

- Test system: Ehrlich
- procedureSummary: In vitro antitumor activity against Mus musculus (mouse) Ehrlich ascites cell assessed as dead tumor cells by trypan blue exclusion test
- Type: functional
Readings of ED100 for the listed compounds
valueKind: ED100 (microg/cm3)

> print(dat)
                                    compound  valueunits  experimentalvalue
 1                 Nc1nnc(SCC(=O)Nc2nncs2)s1  microg/cm3               42.5
 2              Cl/C(=N\c1nncs1)c1ccc(Cl)cc1  microg/cm3                6.9
 3    O=c1[nH]cc(F)c(=O)[nH]1 [FLUOROURACIL]  microg/cm3                 97
 4  Cc1cc(C)c2c(n1)nn1c(N)c(C(=O)Nc3nncs3)nnc21  microg/cm3               80.7
 5  CC1=NN(c2ccccc2)C(=O)/C1=C/c1ccc(Nc2nncs2)cc1  microg/cm3                 31
 6    O=C(CN1CCN(CC(=O)Nc2nncs2)CC1)Nc1nncs1  microg/cm3                 37
 7       CC1=NN(c2ccccc2)C(=O)/C1=N\Nc1nncs1  microg/cm3               42.1
 8              CN(C)/C=C(\C#N)C(=O)Nc1nncs1  microg/cm3                 26
 9                          O=C(CCl)Nc1nncs1  microg/cm3                 28
10                     O=Cc1ccc(Nc2nncs2)cc1  microg/cm3               38.3
11                                  Nc1nncs1  microg/cm3               92.9
12                 O=C(Nc1nncs1)c1ccc(Cl)cc1  microg/cm3                 52
13  Cc1cc(C)c2c(NN/C=C(\C#N)C(=O)Nc3nncs3)n[nH]c2n1  microg/cm3                 19
14              Clc1ccc(-c2nnnn2-c2nncs2)cc1  microg/cm3                 41
15     Clc1ccc(C/N=c2/scnn2Cc2ccc(Cl)cc2)cc1  microg/cm3                 29
16          O=C(CN1CCN(c2ccccc2)CC1)Nc1nncs1  microg/cm3               46.1
17                    O=C(CNc1nncs1)Nc1nncs1  microg/cm3               39.1
18                    c1nnc(/N=N/Nc2nncs2)s1  microg/cm3               61.5
